# target_or_system: cAMP-dependent protein kinase (PKA)
# experiment_notes: PKA kinase inhibition assay, Literature Mimetic conditions
pKi: −log10 of the molar value. M1 = not defined here
Decision: pKi >= 4 yields yes (1), all other cases yield no (0).

Previously resolved entries follow.
binder="Ac-RRGA(M1)I-NH2 (reading uncertain; also: diastereomer B at M1, printed as Ac-Arg-Arg-Gly-Ala(M1)-Ile-NH2) [PKA pentapeptide inhibitor 3B (hydroxyphosphonate, diastereomer B), Ac-Arg-Arg-Gly-Ala(M1)-Ile-NH2]" class_label="yes (1)"
binder="Ac-RRGAI-NH2 (not fully specified (residue 4); printed as Ac-Arg-Arg-Gly-Ala(M1)-Ile-NH2; also: M1 = sulfonamide on side chain of residue 4) [PKA pentapeptide inhibitor 7 (sulfonamide), Ac-Arg-Arg-Gly-Ala(M1)-Ile-NH2]" class_label="no (0)"

Prompt line: Check the entry Ac-RRGA(M1)I-NH2 (not fully specified; printed as Ac-Arg-Arg-Gly-Ala(M1)-Ile-NH2; reading uncertain) [PKA pentapeptide inhibitor 11, Ac-Arg-Arg-Gly-Ala(M1)-Ile-NH2] : does pKi equal or exceed 4?
Response line: yes (1)

Prompt line: And the next one, Ac-RRGA(M1)I-NH2 (reading uncertain; also: diastereomer A at M1, printed as Ac-Arg-Arg-Gly-Ala(M1)-Ile-NH2) [PKA pentapeptide inhibitor 3A (hydroxyphosphonate, diastereomer A), Ac-Arg-Arg-Gly-Ala(M1)-Ile-NH2] ?
Response line: yes (1)

Prompt line: And the next one, Ac-RRGAI-NH2 (not fully specified (residue 4); printed as Ac-Arg-Arg-Gly-Ala(M1)-Ile-NH2; also: M1 = phosphonate on side chain of residue 4) [PKA pentapeptide inhibitor 2 (phosphonate), Ac-Arg-Arg-Gly-Ala(M1)-Ile-NH2] ?
Response line: yes (1)

Prompt line: And the next one, Ac-RRGAI-NH2 (not fully specified (residue 4); printed as Ac-Arg-Arg-Gly-Ala(M1)-Ile-NH2; also: M1 = sulfamic acid on side chain of residue 4) [PKA pentapeptide inhibitor 8 (sulfamic acid), Ac-Arg-Arg-Gly-Ala(M1)-Ile-NH2] ?
Response line: yes (1)

Source of measurements: patent US7901894B2
